test-target: T1, human Mcl-1 (c-myc-tagged) (human, UniProt Q07820 172-327)
T1 chain: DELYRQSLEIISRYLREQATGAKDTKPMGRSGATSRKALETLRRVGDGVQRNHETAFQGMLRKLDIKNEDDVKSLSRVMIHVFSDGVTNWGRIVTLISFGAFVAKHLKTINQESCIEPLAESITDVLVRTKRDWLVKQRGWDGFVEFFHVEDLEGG
procedure-text: fluorescence anisotropy competition
measurement-label: Ki (nM)

Ac-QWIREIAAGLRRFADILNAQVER-NH2 [FS3] : 711

a: Ac-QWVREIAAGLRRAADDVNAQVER-NH2 [FS2]
b: Ac-QWAREIGAQLRRMADDLNAQYER-NH2 [Puma BH3 peptide (23 residues)]
## Input Choose between a and b : whose measured Ki value is numerically larger? Write down the label attached to your selection.
## Output a
(a: 2580 nM, b: 2.7 nM)
